Would you kindly list melting point for each of these molecules?

Ask: Data request, read-out melting point, for COC(=O)c1ccc(CN2CCc3ccc(S(=O)(=O)Nc4cccc(Cl)c4)cc3C2)o1
Result: 167 to 168 °C

Ask: Data request, read-out melting point, for CC(C)[C@H](NC(=O)N(C)Cc1cscn1)C(=O)N[C@@H](Cc1ccccc1)[C@@H](O)C[C@H](Cc1ccccc1)NC(=O)OCc1cccnc1
Result: 71 to 74 °C

Ask: Data request, read-out melting point, for CC(=O)c1ccc(OCCCOc2cc(NC(=O)C(=O)O)c(C)cc2Br)c(CCC(F)(F)F)c1O
Result: 133 to 135 °C

----------
Recorded Endpoint: melting point

Ask: Data request, read-out melting point, for COc1cc2ncnc(N3CCc4ccc(Cl)cc43)c2cc1SC
Result: 210 °C

Ask: Data request, read-out melting point, for O=C(NC(Cc1c[nH]c2ccccc12)C(=O)OCc1cccc(C(F)(F)F)c1)c1ccccc1 (configuration not stated)
Result: 118 °C

Ask: Data request, read-out melting point, for CCCCN(Cc1ccc(-c2ccccc2S(=O)(=O)NC(=O)c2ccccc2Cl)cc1)C(=O)Oc1ccccc1C(F)(F)F
Result: > 150 °C

Ask: Data request, read-out melting point, for Cc1ncccc1Oc1ccc(N)cn1
Result: 95 to 100 °C

Ask: Data request, read-out melting point, for COc1ccc(C(O)CCc2ccccc2O)cc1 (configuration not stated)
Result: 114 to 116 °C

Ask: Data request, read-out melting point, for CS(=O)(=O)c1ccc(-c2cnn(CC(F)(F)F)c(=O)c2NC2CCc3ccccc32)cc1 (configuration not stated)
Result: 155 to 158 °C

Ask: Data request, read-out melting point, for COc1ccc2oc(C(=O)O)c(OC)c2c1
Result: 168 °C

Ask: Data request, read-out melting point, for Cc1cccc(NC(=O)NCCC(=O)O)c1
Result: 166 °C

Ask: Data request, read-out melting point, for CCN1C(=O)C(C)(C)C(=O)N(C)c2cc(CN(CCn3ccc4oc(C)cc4c3=O)Cc3ccncc3)ccc21
Result: 143 to 145 °C

Ask: Data request, read-out melting point, for Cc1c(-c2ccccc2)c(=O)[nH]c2ccccc12
Result: 266 to 268 °C

Ask: Data request, read-out melting point, for O=C(O)COc1ccc2c(=O)c3ccccc3oc2c1Cl
Result: 280 to 281 °C

Ask: Data request, read-out melting point, for O=C1CCC(N2Cc3c(OCc4ccc(C(F)(F)F)cc4)cccc3C2=O)C(=O)N1 (configuration not stated)
Result: 241 to 243 °C

Ask: Data request, read-out melting point, for NNC(=O)c1cc(N2CCN(c3ccc([N+](=O)[O-])cc3)CC2)ccn1
Result: 230 to 232 °C

Ask: Data request, read-out melting point, for COc1cc(/C=C/CO)ccc1OCc1coc(-c2ccccc2)n1
Result: 113 to 114 °C

Ask: Data request, read-out melting point, for O=S(=O)(CCl)Nc1ccc(F)cc1Cl
Result: 83 to 85 °C

Ask: Data request, read-out melting point, for COc1ccc2cc(C(C)C(=O)N3CSCC3C(=O)O)ccc2c1 (configuration not stated)
Result: 165 to 168 °C

Ask: Data request, read-out melting point, for C=C1c2cc(F)ccc2OC12CCN(C(C)=O)CC2
Result: 114 to 116 °C

Ask: Data request, read-out melting point, for CC(=O)Nc1ccc(S(=O)(=O)Cc2cccc(OC(C)=O)c2)c2cccnc12
Result: 179 to 182 °C

Ask: Data request, read-out melting point, for CCCOc1c2nc(C(=O)OC)cc(O)c2cc2c(O)cc(C(=O)OC)nc12
Result: 245 to 247 °C

Ask: Data request, read-out melting point, for Cc1cccc(NC(=O)CC23CC4CC(CC(C4)C2)C3)c1C
Result: 170 °C

Ask: Data request, read-out melting point, for COC(=O)c1ccc2c(c1)C(=O)c1c-2n(CCCNS(=O)(=O)c2ccccc2)c(=O)c2cc(OC)c(OC)cc12
Result: 249 to 251 °C

Ask: Data request, read-out melting point, for CCOC(=O)c1sc(SC(C)C)c2c1CCC(NC(C)=O)C2=O (configuration not stated)
Result: 170 to 171 °C

Ask: Data request, read-out melting point, for CCOC(=O)N1CCN(Cc2ccc(O)c3ncccc23)CC1
Result: 92 to 93 °C

Ask: Data request, read-out melting point, for O=c1[nH]nc(Cc2ccncn2)c2ccccc12
Result: 204 to 206 °C

Ask: Data request, read-out melting point, for COc1ccc(C(=O)O)cc1NC(=O)c1cc(C(C)(C)C)c(O)c(C(C)(C)C)c1
Result: 259 to 261 °C

Ask: Data request, read-out melting point, for CNc1ccc(N)cc1C(=O)n1nc(O)c2ccccc21
Result: 184 to 186 °C

Ask: Data request, read-out melting point, for CC(C)CSc1ccc(-c2nc(=O)c3ccccc3s2)cn1
Result: 92.8 to 93.1 °C

Ask: Data request, read-out melting point, for CS(=O)(=O)CS(=O)(=O)Cl
Result: 109 to 111 °C

Ask: Data request, read-out melting point, for Cc1ccc(C2N=C(c3ccccc3)NC3=C2CCc2c(-c4ccccc4)cc(-c4ccccc4)nc23)cc1 (configuration not stated)
Result: 128 to 133 °C

Ask: Data request, read-out melting point, for CCCCC(CC)C(c1ccc(O)cc1)c1ccc(O)cc1 (configuration not stated)
Result: 87 °C

Ask: Data request, read-out melting point, for O=C(O)Cc1cccc(OCc2ccccc2)c1
Result: 127 to 129 °C

Ask: Data request, read-out melting point, for O=C1NC(=O)C(Cc2ccc(OCCON=Cc3cnc4ccccc4c3)cc2)S1 (configuration not stated)
Result: 182 to 184 °C

Ask: Data request, read-out melting point, for Cc1cc(C(O)(C(F)(F)F)C(F)(F)F)cc(C)c1S
Result: 62 to 64 °C

Ask: Data request, read-out melting point, for CCc1ccc(-c2cn(C)cc(-c3ccccc3)c2=O)cc1
Result: 143 to 145 °C

Ask: Data request, read-out melting point, for Cc1nc2n(c(=O)c1CCN1CCC(=C(c3ccccc3)c3ccccc3)CC1)CCCS2
Result: 176 °C

Ask: Data request, read-out melting point, for O=C(O)Cc1csc(Nc2ccc(Cl)c(C(F)(F)F)c2)n1
Result: 108 to 112 °C

Ask: Data request, read-out melting point, for COC(=O)C(NC(=O)OC(C)(C)C)c1ccc(CC(=O)O)cc1 (configuration not stated)
Result: 123 to 124 °C

----------
Would you kindly list melting point for each of these compounds?

Ask: Data request, read-out melting point, for CC(C)(C)C(=O)Nc1cc2c(O)n(I)c(I)nc-2n1
Result: 233 °C

Ask: Data request, read-out melting point, for CC1(C)CNc2nc(-c3ccncc3)cc(=O)n2C1
Result: 152 to 154 °C

Ask: Data request, read-out melting point, for O=C(O)[C@@H]1Cc2ccccc2N1C(=O)CN1CCN(Cc2ccc(Cl)cc2)CC1
Result: 219 to 221 °C

Ask: Data request, read-out melting point, for CCSC1Oc2ccccc2C(=S)C1(C#N)C(N)=O (centres undefined)
Result: 165 to 168 °C

Ask: Data request, read-out melting point, for COc1cc(F)c2ncc(F)cc2c1
Result: 122 °C

Ask: Data request, read-out melting point, for CC(=O)N1CC(C)(C)c2cc3nc(-c4ccnnc4)[nH]c3cc21
Result: 225 to 260 °C

Ask: Data request, read-out melting point, for O=C1NC(O)c2c1c1c3ccccc3[nH]c1c1[nH]c3ccccc3c21 (centres undefined)
Result: > 300 °C

Ask: Data request, read-out melting point, for CCOC(=O)COc1ccc(C(=O)c2c(Br)cnn2CC)c(Cl)c1Cl
Result: 90 to 91 °C

Ask: Data request, read-out melting point, for Cn1cnnc1C(O)(c1ccc(Cl)cc1)c1ccc2c(c1)c(CCc1cccc(Cl)c1)cc(=O)n2C (centres undefined)
Result: 200 °C

Ask: Data request, read-out melting point, for CCOc1cc(-c2cc(C(F)(F)F)n3ncc(C(=O)Nc4cccc(S(=O)(=O)NC5CC5)c4)c3n2)ccc1C(F)(F)F
Result: 225 °C

Ask: Data request, read-out melting point, for COc1ccc(-c2ccc(C(=O)Nc3ccc4cc(CN5CCCC5)cnc4c3C)c(F)c2)cc1
Result: 164 to 166 °C

Ask: Data request, read-out melting point, for Cc1nc2ccc3c(c2o1)OC(CN1C2CCC1CC(O)(c1ccccc1)C2)CO3 (centres undefined)
Result: 203 to 205 °C

Ask: Data request, read-out melting point, for CCC(O)(CC)[C@H](C[C@H](O)[C@H](CC1CCCCC1)NC(=O)OC(C)(C)C)C(=O)NC
Result: 152 to 155 °C

Ask: Data request, read-out melting point, for CCCc1c(OCCCOc2ccc3c(c2CCC)OC(C(C)=O)(C(=O)OC)CC3)ccc(C(C)=O)c1O (centres undefined)
Result: 58 to 59 °C

Origin of values: a melting point compilation (Tetko et al.; mined from patent text by program, amines drawn as free bases though some values may be those of a salt)
